experiment.notes: qHTS profiling for inhibitors of Plasmodium falciparum proliferation (AID 504749); note: nearly all actives have a fitted effect of over 60% in size; note: potency is the fitted concentration of half-maximal effect
test.conditions: P. falciparum in erythrocytes, SYBR Green DNA, 72 h; parasite line B
Records with an inconclusive call do not appear. The source made the active and inactive calls. Calls come from the whole dose curve; as a rule, active = well fitted inhibition curve with a large enough effect; inconclusive = small, poorly fitted or top-dose-only effect; inactive = flat fitted curve, though single readings scatter.
measure: Potency

Record excerpt, results attached:
Clc1cccc(C(c2ccc3nc[nH]c3c2)n2ccnc2)c1 (stereo unspecified)	10 µM (active)
O[C@@H](c1cc(C(F)(F)F)nc2c(C(F)(F)F)cccc12)[C@H]1CCCCN1	0.0126 µM (active)
CCN1/C(=C/C=C/c2sc3ccccc3[n+]2CC)Sc2ccccc21	0.178 µM (active)
CCOC(=O)c1c(N)sc2c1CCN(Cc1ccccc1)C2	5.01 µM (active)
COc1ccc(C(Cl)=C(c2ccc(OC)cc2)c2ccc(OC)cc2)cc1	3.98 µM (active)
CCCCCCCCNC(C)C(O)c1ccc(SC(C)C)cc1 (stereo unspecified)	0.562 µM (active)
Oc1ccc(Cl)cc1Cc1cc(Cl)ccc1O	11.2 µM (active)
C[N+]1(CC2COC(c3ccccc3)(C3CCCCC3)O2)CCCCC1 (stereo unspecified)	4.47 µM (active)

Data request, read-out Potency, for CCCCCCCCCCCCCC[N+](C)(C)Cc1ccccc1
7.94 µM (active)

If you can, please state the reported Potency value of O=C(Nc1cccc(C2=NCCN2)c1)Nc1cccc(C2=NCCN2)c1 .
11.2 µM (active)

What value of Potency has been recorded for this entry: Cc1ccc(O)c([C@H](CCN(C(C)C)C(C)C)c2ccccc2)c1
3.98 µM (active)

---

# maps each entry to its Potency
system.tested: Glucocorticoid receptor (Homo sapiens)
experiment.notes: GR-GFP Redistribution (AID 450); note: potency is the fitted concentration of half-maximal effect
test.conditions: U2OS GR-GFP nuclear translocation, laser cytometry, 2 h
Calls of active or inactive are those of the source.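 The calls were made as follows: active = compounds whose dose series gives a full or clear partial fitted curve of increased nuclear translocation; inconclusive = weak partial curve or effect only at the top dose; inactive = no dose-dependent translocation response.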

Known Potency results, listed for orientation:
COc1ccc(C(Cl)=C(c2ccc(OC)cc2)c2ccc(OC)cc2)cc1	> 20.6 µM (inactive)
CCCCCCCCNC(C)C(O)c1ccc(SC(C)C)cc1 (stereo unspecified)	> 20.6 µM (inactive)
CC(=O)OC[C@H]1O[C@@H](n2ncc(=O)[nH]c2=O)[C@H](OC(C)=O)[C@@H]1OC(C)=O	> 20.6 µM (inactive)
COc1ccccc1N1CCN(CCCCNC(=O)c2ccc(-c3ccc(C(C)=O)cc3)cc2)CC1	> 46 µM (inactive)
CNCCc1ccccn1	> 20.6 µM (inactive)

# next compound below
Which measured Potency belongs to CN1CCc2cccc3c2[C@H]1Cc1ccc(O)c(O)c1-3 , tested on Glucocorticoid receptor (Homo sapiens)?
> 46 µM (inactive)

---

system.tested: Voltage-gated inwardly rectifying potassium channel KCNH2 (Homo sapiens)
experiment.notes: qHTS Assay for Small Molecule Inhibitors of the Human hERG Channel Activity (AID 588834);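 note: U2OS cells transduced with hERG by BacMam; top concentration of the series differs between compounds; lower thallium flux fluorescence means stronger hERG block; nearly all actives have a fitted effect of over 50% in size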
test.conditions: U2OS BacMam hERG, FluxOR thallium flux fluorescence; series mostly up to 46.1 µM
Inconclusive results are not listed. The source made the active and inactive calls. Calls follow the shape of the dose curve; as a rule, active = well fitted inhibition curve with a large enough effect; inconclusive = small, poorly fitted or top-dose-only effect; inactive = flat fitted curve, though single readings scatter.
Write down the outcome that applies. Available outcomes: yes (1) for active, no (0) for inactive

CCC1NC(=O)c2cc(S(N)(=O)=O)c(Cl)cc2N1 (centres undefined)	no (0)
CC(O)Cn1cnc2c1c(=O)n(C)c(=O)n2C (centres undefined)	no (0)
Nc1nc(-c2ccccc2)c(Br)c(=O)[nH]1	no (0)
Cc1cccc(C)c1NC(=O)CN1CCCC1	no (0)
CCC(C(=O)OCCOCCN(CC)CC)c1ccccc1 (centres undefined)	no (0)

Assay result, entry Cn1c(=O)c2[nH]c(Br)nc2n(C)c1=O — outcome?
no (0)

Which outcome was entered for the molecule NC(N)=NCc1cccc(I)c1 in this test?
no (0)

Look up the recorded call for CCCCCCCCOc1ccc(C(=O)c2ccccc2)c(O)c1 in this test.
no (0)

---

Test system: SC27B
experiment.notes: qHTS profiling for inhibitors of Plasmodium falciparum proliferation (AID 504749); note: nearly all actives have a fitted effect of over 60% in size
test.conditions: P. falciparum in erythrocytes, SYBR Green DNA, 72 h; series mostly up to 28.7 µM
Inconclusive results are not listed. The source made the active and inactive calls. The call rests on the fitted dose curve; in most records, active means well fitted inhibition curve with a large enough effect; inconclusive means small, poorly fitted or top-dose-only effect; inactive means flat fitted curve, though single readings scatter.
Entry note: the call must match one of true for active, false for inactive

CC(=O)Nc1ccc(CC(=O)O)cc1	false
N/C(=N\N=C\c1ccc(Cl)cc1)N/N=C/c1ccc(Cl)cc1	true
CC(=O)Oc1ccc(C)cc1	false
NS(=O)(=O)c1cc(C(=O)O)cc(N2CCCC2)c1Oc1ccccc1	false
CCCCCN=C(N)N/N=C/c1c[nH]c2ccc(OC)cc12	true
CCCCCCCCCCCCCCCC(=O)O	false

Record lookup: outcome of this test for O=S(=O)(O)c1ccc(O)cc1 ?
false

Test call for this molecule, please: O=C(O)c1ccc(S(=O)(=O)N(Cl)Cl)cc1
false

Recorded call for NC(=O)c1ccccc1O ?
false

---

Tested on: CP247
experiment.notes: qHTS profiling for inhibitors of Plasmodium falciparum proliferation (AID 504749); note: nearly all actives have a fitted effect of over 60% in size
test.conditions: P. falciparum in erythrocytes, SYBR Green DNA, 72 h; series mostly up to 28.7 µM
Results filed as inconclusive are left out. The source made the active and inactive calls. The call rests on the fitted dose curve; in most records, active means well fitted inhibition curve with a large enough effect; inconclusive means small, poorly fitted or top-dose-only effect; inactive means flat fitted curve, though single readings scatter.
Choose one outcome from this list and give only that: TRUE (active), FALSE (inactive)

CCOCCn1c(N2CCCN(C)CC2)nc2ccccc21	FALSE

Now look at this one.
Write down the call the test reported for this compound. Item: CCCN(CCc1cccs1)[C@H]1CCc2c(O)cccc2C1
TRUE

---

System: P94_40
experiment.notes: qHTS profiling for inhibitors of Plasmodium falciparum proliferation (AID 504749); note: nearly all actives have a fitted effect of over 60% in size
test.conditions: P. falciparum in erythrocytes, SYBR Green DNA, 72 h; series mostly up to 28.7 µM
Inconclusive results are not listed. Calls of active or inactive are those of the source. Calls come from the whole dose curve; as a rule, active = well fitted inhibition curve with a large enough effect; inconclusive = small, poorly fitted or top-dose-only effect; inactive = flat fitted curve, though single readings scatter.
Can you answer with just one of these options? y = active, n = inactive

OC[C@H]1O[C@@H]2O[C@H]3[C@H](O)[C@@H](O)[C@@H](O[C@H]4[C@H](O)[C@@H](O)[C@@H](O[C@H]5[C@H](O)[C@@H](O)[C@@H](O[C@H]6[C@H](O)[C@@H](O)[C@@H](O[C@H]7[C@H](O)[C@@H](O)[C@@H](O[C@H]8[C@H](O)[C@@H](O)[C@@H](O[C@H]1[C@H](O)[C@H]2O)O[C@@H]8CO)O[C@@H]7CO)O[C@@H]6CO)O[C@@H]5CO)O[C@@H]4CO)O[C@@H]3CO	n
CNCCc1ccccn1	n
CCCCNc1ccc(C(=O)OCCOCCOCCOCCOCCOCCOCCOCCOCCOC)cc1	n
CCOc1ccccc1OCCN[C@H](C)Cc1ccc(OC)c(S(N)(=O)=O)c1	n
COc1cc(C)nc(-n2nc(C)cc2OC)n1	n
CC(C)=CCOc1ccc(/C=C/C(=O)c2ccc(OCC=C(C)C)cc2OCC(=O)O)cc1	n
O=C(O)c1ccc(S(=O)(=O)N(Cl)Cl)cc1	n
Cc1nc(-c2ccc(Cl)cc2)oc1COC(C)(C)C(=O)O	n
Cc1ccc(O)c([C@H](CCN(C(C)C)C(C)C)c2ccccc2)c1	y
COc1ccc2c(c1)c1c3n2CCN(C)C3=NCC1	n

What call does the record list for CC(=O)Nc1ccc(CC(=O)O)cc1 ?
n

Hey, what did the test say about Oc1ccccc1C=NCc1ccccc1 ?
n

---

experiment.notes: qHTS of pediatric cancer cell lines to identify multiple opportunities for drug repurposing: Confirmatory screen for Rh30 cells (AID 1347126); note: nearly all actives have a fitted effect of over 55% in size
test.conditions: Rh30 rhabdomyosarcoma cell viability; series mostly up to 45.9 µM
Results filed as inconclusive are left out. The source made the active and inactive calls. Calls come from the whole dose curve; as a rule, active = well fitted cell-killing curve with a large enough effect; inconclusive = small, poorly fitted or top-dose-only effect, or effect the other way; inactive = no such curve, though single readings can be large or run the other way.
Entry note: the call must match one of active, inactive

COc1ccc(C(=O)c2ccccc2)c(O)c1	inactive

Hey, what did the test say about C[C@@]12C(=O)OC(=O)[C@]1(C)C1CCC2O1 ?
active

Check the results log: what was the call for CCCCCCCCCCC[C@@H](C[C@@H]1OC(=O)[C@H]1CCCCCC)OC(=O)[C@H](CC(C)C)NC=O ?
inactive

Could you check what this test reported for O=C(Oc1cccc2cccnc12)c1ccccc1 ?
inactive

---

Tested on: CP238
experiment.notes: qHTS profiling for inhibitors of Plasmodium falciparum proliferation (AID 504749); note: nearly all actives have a fitted effect of over 60% in size
test.conditions: P. falciparum in erythrocytes, SYBR Green DNA, 72 h; series mostly up to 28.7 µM
Inconclusive results are not listed. Active and inactive are the calls of the source. The call rests on the fitted dose curve; in most records, active means well fitted inhibition curve with a large enough effect; inconclusive means small, poorly fitted or top-dose-only effect; inactive means flat fitted curve, though single readings scatter.
The reply should be one of these categories: active, inactive

Study these solved cases before continuing.
COc1cc(O)c(C(=O)c2ccccc2)cc1S(=O)(=O)O	inactive
C/C=C/c1ccc(O)c(OC)c1	inactive

I'd appreciate the recorded outcome for C/C=C/C=N/NC(=O)c1ccncc1 from this test.
inactive

Hi team, can someone confirm the assay call for COc1cc(C)nc(-n2nc(C)cc2OC)n1 ?
inactive

For FC(F)(F)C(F)(F)C(F)(F)C(F)(F)C(F)(F)C(F)(F)C(F)(F)C(F)(F)Br , what call appears in the results of this test?
inactive

What was the test verdict on O=C1C(=O)c2ccccc2C(O)=C1C1CCC(c2ccc(Cl)cc2)CC1 (stereo unspecified) ?
active

---

experiment.notes: Primary qHTS for inhibitors of La Crosse Virus (LACV) - induced cell death in SH-SY5Y cells (AID 1508616);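 note: top concentration of the series differs between compounds; 0% = infected DMSO wells and 100% = uninfected DMSO wells; higher means more rescue of cells from virus-induced death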
test.conditions: SH-SY5Y LACV cytopathicity rescue, ATP luminescence, 6 d; series mostly up to 4.29 µM
Records with an inconclusive call do not appear. Calls of active or inactive are those of the source. The call rests on the fitted dose curve; in most records, active means well fitted inhibition curve with a large enough effect; inconclusive means small, poorly fitted or top-dose-only effect; inactive means no such curve, though single readings can be large or run the other way.
measure: outcome

O=C(Nc1cccc(C2=NCCN2)c1)Nc1cccc(C2=NCCN2)c1	inactive
OC(C#CCN1CCCC1)(c1ccccc1)c1ccccc1	inactive
Cc1ncc(CO)c(C=O)c1O	inactive
O=C(Oc1cccc2cccnc12)c1ccccc1	inactive
CC(=O)NCCCCCC(=O)O	inactive

Recorded outcome of CCCCNC(=O)NS(=O)(=O)c1ccc(N)cc1 , please.
inactive

Give the measured outcome of CC[N+](C)(CC)CCOC(=O)C(O)(c1ccccc1)C1CCCCC1 (configuration not stated) .
inactive

outcome for CCCCCCCCCCCCOCCOCCOCCOCCOCCOCCOCCOCCOCCO ?
inactive

Fill blank: measured outcome of the compound O=S(c1cc(Cl)cc(Cl)c1O)c1cc(Cl)cc(Cl)c1O is ____.
inactive

Name the reported outcome value associated with the compound CCC1Nc2cc(Cl)c(S(N)(=O)=O)cc2S(=O)(=O)N1 (configuration not stated)
inactive

What measured outcome goes with NC(=O)n1c(O)c(C(=O)c2cccs2)c2cc(Cl)ccc21 ?
inactive

Endpoint output: outcome of C[C@@H](O)[C@H]1C(=O)N2C(C(=O)O)=C([C@H]3CCCO3)S[C@H]12 . Value?
inactive
